Taken from PubChem BioAssay AID1159580.

Reported normalized growth values for the following compounds.
# ASSAY REMARKS: chemical genetic growth profiling, strain panel (AID 1159580);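 also: tested at 20 µM; growth read once vehicle control cultures reached saturation at 30 °C; 1 = growth at the plate median or of vehicle wells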
# SETUP CONDITIONS: S. cerevisiae deletion strains, growth OD, locus YIL066C, strain RNR3, stronger effect = lower value
Out of some 5,500 compounds screened, about 2,000 (36%) were called active. Another 18% or so got no clear call; they are omitted. The list shows a part of the results.
Give the value as a plain number.

Req: Which normalized growth value is on record for CC(C)N1C(=O)c2ccccc2NS1(=O)=O ?
Resp: 1.03

Req: Field request: normalized growth | item: O=C(CCc1ccc(O)cc1)c1c(O)cc(O)cc1O
Resp: 1.01

Req: Record request: normalized growth value, item C=C[C@H]1CN2CC[C@H]1C[C@H]2[C@H](O)c1ccnc2ccccc12
Resp: 1

Req: What does the record list as normalized growth for COc1cc2cccc(OC)c(=O)c2c(OC)c1OC ?
Resp: 1.02

Req: GET /values?readout=normalized growth&item= C[N+]1(C)CCCC(OC(=O)C(O)(c2ccccc2)c2ccccc2)C1 (stereo unspecified)
Resp: 1.01

Req: State the recorded normalized growth for this entry: O=C(O)c1cc(=O)c2ccccc2[nH]1
Resp: 0.973

Req: Name the reported normalized growth value associated with the compound CC(=O)Oc1c(C)c(C)c2c(c1C)CCC(C)(CCCC(C)CCCC(C)CCCC(C)C)O2 (stereo unspecified)
Resp: 1.03

* * *

Listed below: normalized growth values for each entry.
# ASSAY REMARKS: chemical genetic growth profiling, strain panel (AID 1159580);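 also: tested at 20 µM; growth read once vehicle control cultures reached saturation at 30 °C; 1 = growth at the plate median or of vehicle wells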
# SETUP CONDITIONS: S. cerevisiae deletion strains, growth OD, locus YNL271C, strain bni1, stronger effect = lower value
Screen size: about 5,500 compounds; about 2,000 (36%) were called active. Another 18% or so got no clear call; they are omitted. This is one part of the list.
The reply should be a number, written without any unit.

For orientation, consider the following solved cases.
[[record]]
molecule = "CCCCCC/C=C\\CCCCCCCc1cccc(O)c1C(=O)O"
result = 0.99

[[record]]
molecule = "O=C(c1ccccc1)c1ccc2n1CCC2C(=O)O (stereo unspecified)"
result = 0.96

[[record]]
molecule = "COc1ccc(/C=C/c2cc(O)cc(O[C@@H]3O[C@H](CO)[C@@H](O)[C@H](O)[C@H]3O)c2)cc1"
result = 1

[[record]]
molecule = "COc1ccc(-c2c(O)c3c(OC)c4c(cc3oc2=O)OC(C)(C)C=C4)cc1"
result = 1

[[record]]
molecule = "CN1CCCCC1c1ccc(-c2cccnc2)nc1 (stereo unspecified)"
result = 0.988

[[record]]
molecule = "CCCN(CCC)c1c([N+](=O)[O-])cc(C(F)(F)F)cc1[N+](=O)[O-]"
result = 1.01

[[record]]
molecule = "COc1ccc(CC(=O)c2ccc(O)cc2O)cc1"
result = 0.964

[[record]]
molecule = "COC(=O)c1cc(OC)c(=O)c2c(OC)c(OC)ccc2c1"
result = 0.981


Req: Recorded normalized growth of C[N+]1(C)CCCC(OC(=O)C(O)(c2ccccc2)c2ccccc2)C1 (stereo unspecified) , please.
Resp: 0.981

Req: For the molecule COc1ccc([C@@H](C)C(=O)c2ccc(O)cc2O)cc1 , what normalized growth is on record?
Resp: 0.975

Req: Can you share its normalized growth? I mean this molecule: O=C(/C=C/c1ccccc1)c1c(O)cc(O)cc1O
Resp: 1

Req: What value of normalized growth has been recorded for this entry: COC(=O)C[C@H]1C(C)(C)[C@H](O)[C@@H]2CC3=C4CC(O)O[C@@H](c5ccoc5)[C@]4(C)CCC3[C@@]1(C)C2=O (stereo partly specified)
Resp: 0.989

Req: Need normalized growth of Cn1c(=O)c2c(ncn2CCCl)n(C)c1=O , thanks.
Resp: 1.02

Req: Recorded normalized growth for COP(=O)(NC(C)=O)SC (stereo unspecified) , please?
Resp: 0.993

Req: What value of measured normalized growth is listed for C=C[C@H]1CN2CC[C@H]1C[C@H]2[C@H](O)c1ccnc2ccccc12 ?
Resp: 0.993

Req: So what's the measured normalized growth for this one? Cc1cc(O)c2c(c1)C(=O)c1cc(O)cc(O)c1C2=O
Resp: 0.782

* * *

# ASSAY REMARKS: chemical genetic growth profiling, strain panel (AID 1159580);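 also: tested at 20 µM; growth read once vehicle control cultures reached saturation at 30 °C; 1 = growth at the plate median or of vehicle wells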
# SETUP CONDITIONS: S. cerevisiae deletion strains, growth OD, locus YNL250W, strain rad50
Hit rate of the full screen: of about 5,500 compounds, about 2,000 (36%) were called active. About 18% were inconclusive and are not listed. No stated cut-off is given here; in the data, active means normalized growth mostly below about 0.91 (no sharp cut-off); inconclusive means no clear call, values can overlap the other calls; inactive means mostly above about 0.92. The list shows a part of the results.
Please reply with one of these outcomes: active, inactive

[[record]]
molecule = "CNC(C)[C@@H]1CC[C@@H](N)[C@@H](OC2[C@@H](N)C[C@@H](N)[C@H](OC3OC[C@](C)(O)[C@H](NC)[C@H]3O)[C@H]2O)O1 (stereo partly drawn)"
label_class = "inactive"


Req: Each molecule tested received a call. Report the one for NS(=O)(=O)c1cc2c(cc1Cl)NCNS2(=O)=O .
Resp: inactive

Req: Kindly provide the recorded test outcome for the following molecule: Cn1cnc2c1c(=O)[nH]c(=O)n2C
Resp: inactive

Req: # fetch the recorded call for Cn1c(=O)c2c(ncn2CCCl)n(C)c1=O here
Resp: inactive

Req: For this molecule, state the assay outcome: C=C[C@H]1CN2CC[C@H]1C[C@H]2[C@H](O)c1ccnc2ccccc12
Resp: inactive

Req: Given N[C@@H](C(=O)N[C@@H]1C(=O)N2C(C(=O)O)=C(Cl)CS[C@H]12)c1ccccc1 , state the outcome it received in this test.
Resp: inactive

Req: Would you mind telling me which call this test gave O=C1c2ccccc2C(=O)c2ccccc21 ?
Resp: inactive

Req: I'd appreciate the recorded outcome for Cn1c(=O)c2c(ncn2C)n(C)c1=O from this test.
Resp: inactive

Req: So what was the verdict on COc1ccc(-c2c(OC)c3c(OC)c4c(cc3oc2=O)OC(C)(C)C=C4)cc1 in this test?
Resp: inactive

Req: Dear all, I need the recorded test outcome for Cn1c(=O)c2c(ncn2CCO)n(C)c1=O , thank you.
Resp: inactive

Req: Record request — test call for O=C(N[C@@H](CO)[C@H](O)c1ccc([N+](=O)[O-])cc1)C(Cl)Cl
Resp: inactive

Req: What did the test return for CC(C)N=C(N)N=C(N)Nc1ccc(Cl)cc1 ?
Resp: inactive

Req: So what was the verdict on CC(C)=CCC/C(C)=C/CO in this test?
Resp: inactive

Req: Outcome logged for NC(=NCCCCCCN=C(N)N=C(N)Nc1ccc(Cl)cc1)N=C(N)Nc1ccc(Cl)cc1 in this assay:
Resp: inactive

Req: Would you mind telling me which call this test gave CC(=O)OC[C@@]1(O)C[C@@]23CCC4c5ccoc5CC[C@]4(C)C2CC[C@@H]1C3 (stereo partly drawn) ?
Resp: inactive

Req: Tell me the recorded outcome of this test for COc1cc(O)c2c(c1)C(=O)c1cc(C)cc(O)c1C2=O .
Resp: active

Req: Dear all, I need the recorded test outcome for CC(=O)CCCCn1c(=O)c2c(ncn2C)n(C)c1=O , thank you.
Resp: inactive

Req: Entry COc1ccc(-c2c(O)c3c(OC)c4c(cc3oc2=O)OC(C)(C)C=C4)cc1 : call = ?
Resp: inactive

Req: Status in this test for COc1cc(OC)c2c(OC)c(-c3ccc4c(c3)OCO4)c(=O)oc2c1 ?
Resp: inactive

* * *

# ASSAY REMARKS: chemical genetic growth profiling, strain panel (AID 1159580);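 also: tested at 20 µM; growth read once vehicle control cultures reached saturation at 30 °C; 1 = growth at the plate median or of vehicle wells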
# SETUP CONDITIONS: S. cerevisiae deletion strains, growth OD, locus YNL175C, strain NOP13, stronger effect = lower value
Hit rate of the full screen: of about 5,500 compounds, about 2,000 (36%) were called active. About 18% were inconclusive and are not listed. Some of the results follow.
Below: a set of entries, each annotated with reported normalized growth.
Please give only the number in your answer, with no unit.

Examples from the recorded data:
[[record]]
compound = "C#CCn1c(=O)c2c(ncn2C)n(C)c1=O"
reported_metric = "normalized growth"
result = 0.998

[[record]]
compound = "COC(=O)c1c(-c2cc(OC)c(OC)c(OC)c2)c2ccnc(OCc3ncccn3)c2c(=O)n1Cc1ccnc(C)c1"
reported_metric = "normalized growth"
result = 1

[[record]]
compound = "CCC1(C2=NCCN2)Cc2ccccc2O1 (stereo not drawn)"
reported_metric = "normalized growth"
result = 1.01

[[record]]
compound = "CC(=O)CCCCn1c(=O)c2c(ncn2C)n(C)c1=O"
reported_metric = "normalized growth"
result = 1.02

[[record]]
compound = "O=c1onc2n1-c1cc(Br)ccc1OC2"
reported_metric = "normalized growth"
result = 1

[[record]]
compound = "CCCN1CCCC2Cc3[nH]ncc3CC21 (stereo not drawn)"
reported_metric = "normalized growth"
result = 0.994

[[record]]
compound = "Cn1c(=O)c2c(ncn2C)n(C)c1=O"
reported_metric = "normalized growth"
result = 1.02


In the following, a different compound is considered.
Req: Dear colleague, I am looking for the recorded normalized growth of the following compound: CCCn1c(=O)c2c(ncn2C)n(CCC)c1=O
Resp: 1
